Data origin, for the record: ChEMBL document CHEMBL3616437

System: Cryptococcus neoformans
Assay: Antifungal activity against Cryptococcus neoformans VM-MCMMPI after 48 to 72 hrs by broth microdilution method
Assay type: functional

# molecule, MFC [µM]
records = [
    ("C(=N\\Nc1nc(-c2ccccc2)cs1)/C1CCCCC1", 3.9),
    ("c1ccc(-c2csc(NN=C3CCCC3)n2)cc1", 7.8),
    ("OC(Cn1cncn1)(Cn1cncn1)c1ccc(F)cc1F [FLUCONAZOLE]", 15.6),
]

* * *

Listed here: items and their measured selectivity ratio.
Assay: Selectivity index, ratio of IC50 for African green monkey Vero cells to MIC for Cryptococcus neoformans ATCC 24067
Type: toxicity, cell-based

# compound string, selectivity ratio
records = [
    ("C(=N\\Nc1nc(-c2ccccc2)cs1)/C1CCCCC1", 111),
    ("COc1ccc(-c2csc(N/N=C(\\C)CCO)n2)cc1", 111),
    ("COc1ccc(/C=N/Nc2nc(-c3ccc(Cl)cc3)cs2)cc1OC", 6.41),
    ("OC(Cn1cncn1)(Cn1cncn1)c1ccc(F)cc1F", 15.7),
    ("Clc1ccc(-c2csc(N/N=C3\\CCCC\\C3=C/c3ccccc3)n2)cc1", 12.8),
    ("COc1ccc(-c2csc(N/N=C3\\CCCC\\C3=C/c3ccccc3)n2)cc1", 12.8),
]
